These entries and their values trace back to patent US6500819B2.

# experimental details: Muscle relaxant effect (traction method), first part
# measurement context: male, ddY, mouse, in vivo, po
# Procedure: Muscle Relaxant Effect (Traction Method) Compound 3, Compound 13, diazepam or buspirone was suspended in a 0.5 % sodium carboxymethyl cellulose solution, and the suspension was orally administered to 3- to 4-week-old male ddY mice (in groups of 5) in a volume of 10 ml/kg one hour before the start of experiment. With reference to a method described in Japan. J. Pharmacol., 49. […] Thus, ED5 0 was determined for evaluation. […]
observable: ED50 at 1 h
Report as: number unit

Returns the measured ED50 at 1 h for the input compound. Input: CN1C(=O)CN=C(c2ccccc2)c2cc(Cl)ccc21 [Diazepam, diazepam, reference compound]
2.2 mg/kg

----------
# Test system: Wistar rats
# experimental details: Anticonflict test (first part, Test Example 1)
# Format: in vivo
# measurement context: oral; compounds at doses of 0.001 to 1.0 mg/kg
observable: Anxiolytic effect in the anticonflict test (in words)

CN1C(=O)CN=C(c2ccccc2)c2cc(Cl)ccc21 [Diazepam, diazepam, reference compound]; almost ineffective
O=C1CC2(CCCC2)CC(=O)N1CCCCN1CCN(c2ncccn2)CC1 [Buspirone, buspirone, reference compound]; almost ineffective

----------
# experimental details: Effect on central nervous system depressant (ethanol enhancing method), second part
# measurement context: male, ddY, mouse, in vivo
observable: ED50 at 1 h

Returns the measured ED50 at 1 h for the input compound. Input: CN1C(=O)CN=C(c2ccccc2)c2cc(Cl)ccc21 [Diazepam, diazepam, reference compound]
0.48 mg/kg

----------
# experimental details: Effect on central nervous system depressant: ethanol enhancing method, first part
# measurement context: male, ddY, mouse, in vivo
observable: ED50 at 1 h (mg/kg)
Respond with the bare value in mg/kg.

Returns the measured ED50 at 1 h for the input compound. Input: CN1C(=O)CN=C(c2ccccc2)c2cc(Cl)ccc21 [Diazepam, diazepam, reference compound]
0.48

----------
# experimental details: Muscle relaxant effect (traction method), second part
# measurement context: male, ddY, mouse, in vivo, po
observable: ED50 at 1 h
Report as: number unit

Returns the measured ED50 at 1 h for the input compound. Input: CN1C(=O)CN=C(c2ccccc2)c2cc(Cl)ccc21 [Diazepam, diazepam, reference compound]
2.2 mg/kg

----------
# System: Wistar rats
# experimental details: Anticonflict test (first part, Test Example 1)
# Type: in vivo
# measurement context: dose 1.0 mg/kg oral, 1 h before test; value relative to control = 100
observable: Frequency of water drinking behavior
Report as: number unit

COc1ccc(C(=O)N2C(=O)CCC3C(O)CCC32)cc1 (stereo not drawn); 169%

Returns the measured Frequency of water drinking behavior for the input compound. Input: COc1ccc(C(=O)N2C(=O)CC3CCCCC32)cc1 (stereo not drawn)
133%

Returns the measured Frequency of water drinking behavior for the input compound. Input: COc1ccc(C(=O)N2C(=O)CCC3CCCC32)cc1 (stereo not drawn)
166%

Returns the measured Frequency of water drinking behavior for the input compound. Input: CN1C(=O)CN=C(c2ccccc2)c2cc(Cl)ccc21 [Diazepam, diazepam, reference compound]
96%

Returns the measured Frequency of water drinking behavior for the input compound. Input: COc1ccc(C(=O)N2C(=O)CCC3CCCCC32)cc1 (stereo not drawn)
122%

Returns the measured Frequency of water drinking behavior for the input compound. Input: O=C1CC2(CCCC2)CC(=O)N1CCCCN1CCN(c2ncccn2)CC1 [Buspirone, buspirone, reference compound]
103%
